Test system: Trypanosoma brucei brucei
Assay: Antitrypanosomal activity against Trypanosoma brucei brucei TC221 after 48 hrs by alamar blue assay
Type: functional, organism-based
Details: TC221, 48 h
The threshold is 3 µM. Values of IC50 beneath it are tagged met; values meeting or exceeding it are tagged not met.

{"molecule": "CN1CCN(C(C(=O)Nc2ccc(NC(=O)c3cccc4ccccc34)cc2C(=O)c2ccccc2)c2ccccc2)CC1 (racemic)", "categoryLabel": "met"}
{"molecule": "CC(=O)Nc1ccc(NC(=O)CN2CCN(C)CC2)c(C(=O)c2ccccc2)c1", "categoryLabel": "not met"}
{"molecule": "CCC(=O)Nc1ccc(NC(=O)CN2CCN(C)CC2)c(C(=O)c2ccccc2)c1", "categoryLabel": "not met"}
{"molecule": "CCC(=O)Nc1ccc(NC(=O)C(c2ccccc2)N2CCN(C)CC2)c(C(=O)c2ccccc2)c1 (racemic)", "categoryLabel": "not met"}

----------
Molecular target: Multidrug resistance protein Pgh1 (Plasmodium falciparum)
Assay: Inhibition of Plasmodium PGH1-mediated fluorochrome accumulation into parasite digestive vacuole at […] concentration
Activity calls are given as the source filed them. The rule behind the calls is not given here.
readout: inhibition

{"molecule": "CN1CCN(C(C(=O)Nc2ccc(NC(=O)c3ccccc3)cc2C(=O)c2ccccc2)c2ccccc2)CC1 (racemic)", "targetEntity": "Multidrug resistance protein Pgh1 (Plasmodium falciparum)", "reportedValue": "inactive"}
{"molecule": "CN1CCN(C(C(=O)Nc2ccc(NC(=O)C(C)(C)C)cc2C(=O)c2ccccc2)c2ccccc2)CC1 (racemic)", "targetEntity": "Multidrug resistance protein Pgh1 (Plasmodium falciparum)", "reportedValue": "inactive"}
{"molecule": "CC1CCN(C(=O)Nc2ccc(NC(=O)C(c3ccccc3)N3CCN(C)CC3)c(C(=O)c3ccccc3)c2)CC1 (stereo not drawn)", "targetEntity": "Multidrug resistance protein Pgh1 (Plasmodium falciparum)", "reportedValue": "inactive"}

----------
Test system: Plasmodium falciparum
Experiment: Antimalarial activity against Plasmodium falciparum Dd2 […] cells after 72 hrs by [3H]hypoxanthine incorporation assay
Format: functional, organism-based

{"compound": "CN1CCN(CC(=O)Nc2ccc(NC(=O)CCc3ccccc3)cc2C(=O)c2ccccc2)CC1", "unitInfo": "nM", "boundType": "=", "IC50": 6720}
{"compound": "CCC(=O)Nc1ccc(NC(=O)CN2CCN(C)CC2)c(C(=O)c2ccccc2)c1", "unitInfo": "nM", "boundType": ">", "IC50": 16000}
{"compound": "CN1CCN(C(C(=O)Nc2ccc(NC(=O)c3cccnc3)cc2C(=O)c2ccccc2)c2ccccc2)CC1 (centres undefined)", "unitInfo": "nM", "boundType": "=", "IC50": 2260}
{"compound": "CN1CCN(C(C(=O)Nc2ccc(NS(=O)(=O)c3ccccc3)cc2C(=O)c2ccccc2)c2ccccc2)CC1 (racemic)", "unitInfo": "nM", "boundType": "=", "IC50": 910}

----------
Tested on: Plasmodium falciparum
Assay: Antimalarial activity against Plasmodium falciparum Dd2 […] cells after 72 hrs by [3H]hypoxanthine incorporation assay
Type: functional, organism-based
pIC50: −log10 of the molar value.

{"compound": "CN1CCN(C(C(=O)Nc2ccc(NS(C)(=O)=O)cc2C(=O)c2ccccc2)c2ccccc2)CC1 (racemic)", "boundType": "=", "pIC50": 4.97}
{"compound": "CN1CCN(CC(=O)Nc2ccc(NC(=O)c3ccc4ccccc4c3)cc2C(=O)c2ccccc2)CC1", "boundType": "=", "pIC50": 5.70}
{"compound": "CC(C)N(C(=O)Nc1ccc(NC(=O)C(c2ccccc2)N2CCN(C)CC2)c(C(=O)c2ccccc2)c1)C(C)C (configuration not stated)", "boundType": "=", "pIC50": 6.96}
{"compound": "CC1CCN(C(=O)Nc2ccc(NC(=O)C(c3ccccc3)N3CCN(C)CC3)c(C(=O)c3ccccc3)c2)CC1 (configuration not stated)", "boundType": "<", "pIC50": 4.80}
{"compound": "CN1CCN(C(C(=O)Nc2ccc(N(S(=O)(=O)c3ccccc3)S(=O)(=O)c3ccccc3)cc2C(=O)c2ccccc2)c2ccccc2)CC1 (racemic)", "boundType": "=", "pIC50": 5.91}
{"compound": "CN1CCN(C(C(=O)Nc2ccc(NC(=O)CCc3ccccc3)cc2C(=O)c2ccccc2)c2ccccc2)CC1 (racemic)", "boundType": "=", "pIC50": 5.74}
{"compound": "CN1CCN(C(C(=O)Nc2ccc(NC(=O)c3ccc4ccccc4c3)cc2C(=O)c2ccccc2)c2ccccc2)CC1 (racemic)", "boundType": "=", "pIC50": 6.62}

----------
Experiment: Cytotoxicity against human HeLa cells after 72 hrs by methylene blue staining
Type: cell-based
# key: entry, value: CC50 at 72 h

{"compound": "CN1CCN(C(C(=O)Nc2ccc(NC(=O)CCc3ccccc3)cc2C(=O)c2ccccc2)c2ccccc2)CC1 (racemic)", "CC50 at 72 h": "8 µM"}
{"compound": "CN1CCN(C(C(=O)Nc2ccc(NC(=O)c3cccc4ccccc34)cc2C(=O)c2ccccc2)c2ccccc2)CC1 (racemic)", "CC50 at 72 h": "4 µM"}
{"compound": "CN1CCN(C(C(=O)Nc2ccc(N(S(=O)(=O)c3ccccc3)S(=O)(=O)c3ccccc3)cc2C(=O)c2ccccc2)c2ccccc2)CC1 (racemic)", "CC50 at 72 h": "12 µM"}
{"compound": "CN1CCN(C(C(=O)Nc2ccc(NS(C)(=O)=O)cc2C(=O)c2ccccc2)c2ccccc2)CC1 (racemic)", "CC50 at 72 h": "99 µM"}
{"compound": "CCC(=O)Nc1ccc(NC(=O)CN2CCN(C)CC2)c(C(=O)c2ccccc2)c1", "CC50 at 72 h": "> 122 µM"}
{"compound": "CN1CCN(CC(=O)Nc2ccc(NC(=O)c3ccc4ccccc4c3)cc2C(=O)c2ccccc2)CC1", "CC50 at 72 h": "9 µM"}
{"compound": "CN1CCN(C(C(=O)Nc2ccc(NC(=O)c3cccnc3)cc2C(=O)c2ccccc2)c2ccccc2)CC1 (stereo not drawn)", "CC50 at 72 h": "37 µM"}
{"compound": "CC(=O)Nc1ccc(NC(=O)CN2CCN(C)CC2)c(C(=O)c2ccccc2)c1", "CC50 at 72 h": "53 µM"}
{"compound": "CCC(=O)Nc1ccc(NC(=O)C(c2ccccc2)N2CCN(C)CC2)c(C(=O)c2ccccc2)c1 (racemic)", "CC50 at 72 h": "84 µM"}
{"compound": "CN1CCN(C(C(=O)Nc2ccc(NC(=O)Cc3ccccc3)cc2C(=O)c2ccccc2)c2ccccc2)CC1 (racemic)", "CC50 at 72 h": "16 µM"}
{"compound": "CN1CCN(C(C(=O)Nc2ccc(NC(=O)c3ccc4ccccc4c3)cc2C(=O)c2ccccc2)c2ccccc2)CC1 (racemic)", "CC50 at 72 h": "4 µM"}
{"compound": "CC(=O)Nc1ccc(NC(=O)C(c2ccccc2)N2CCN(C)CC2)c(C(=O)c2ccccc2)c1 (racemic)", "CC50 at 72 h": "105 µM"}
{"compound": "CN1CCN(C(C(=O)Nc2ccc(NC(=O)C(C)(C)C)cc2C(=O)c2ccccc2)c2ccccc2)CC1 (racemic)", "CC50 at 72 h": "45 µM"}
{"compound": "CN1CCN(CC(=O)Nc2ccc(NC(=O)c3ccccc3)cc2C(=O)c2ccccc2)CC1", "CC50 at 72 h": "> 109 µM"}
{"compound": "CN1CCN(C(C(=O)Nc2ccc(NS(=O)(=O)c3ccccc3)cc2C(=O)c2ccccc2)c2ccccc2)CC1 (racemic)", "CC50 at 72 h": "26 µM"}
{"compound": "CN1CCN(CC(=O)Nc2ccc(NC(=O)CCc3ccccc3)cc2C(=O)c2ccccc2)CC1", "CC50 at 72 h": "80 µM"}
{"compound": "CN1CCN(C(C(=O)Nc2ccc(NC(=O)c3ccccc3)cc2C(=O)c2ccccc2)c2ccccc2)CC1 (racemic)", "CC50 at 72 h": "16 µM"}
{"compound": "CC(C)N(C(=O)Nc1ccc(NC(=O)C(c2ccccc2)N2CCN(C)CC2)c(C(=O)c2ccccc2)c1)C(C)C (stereo not drawn)", "CC50 at 72 h": "4 µM"}
